Read-out: Cytochrome P450 4A22 (Homo sapiens)
Method: LTEA_HepaRG_CYP4A22: Life Technologies and Expression Analysis (LTEA) Assay for Cytochrome P450 4A22 (CYP4A22) using HepaRG (AID 2283495)
Experimental Parameters: mRNA level, 48 h; actives raise or lower the signal
Active and inactive are the calls of the source. Rule for the calls: active = hit-call score of the fitted dose curve at least 0.9, where 1 is the maximum; inactive = score below 0.9.
Quantity Name: AC50

{"Compound": "Nc1c(Cl)c(Cl)nc(C(=O)O)c1Cl", "Quantity Name": "AC50", "Reported Result": "inactive"}
{"Compound": "COCC(=O)N(c1c(C)cccc1C)C(C)C(=O)OC (stereo unspecified)", "Quantity Name": "AC50", "Reported Result": "inactive"}
{"Compound": "O=P(O)(O)CCCl", "Quantity Name": "AC50", "Reported Result": "inactive"}
{"Compound": "O=C1C2CC=CCC2C(=O)N1SC(Cl)(Cl)Cl (stereo unspecified)", "Quantity Name": "AC50", "Reported Result": "inactive"}
{"Compound": "CC(C)NC(=O)N1CC(=O)N(c2cc(Cl)cc(Cl)c2)C1=O", "Quantity Name": "AC50", "Reported Result": "8.83 µM (active)"}
{"Compound": "N#Cc1c[nH]cc1-c1cccc2c1OC(F)(F)O2", "Quantity Name": "AC50", "Reported Result": "84.8 µM (active)"}
{"Compound": "O=C(Nc1ccccc1-c1ccc(Cl)cc1)c1cccnc1Cl", "Quantity Name": "AC50", "Reported Result": "inactive"}
{"Compound": "COC(=O)NS(=O)(=O)c1ccc(N)cc1", "Quantity Name": "AC50", "Reported Result": "inactive"}
{"Compound": "COP(=S)(OC)SCn1nnc2ccccc2c1=O", "Quantity Name": "AC50", "Reported Result": "inactive"}
{"Compound": "CNC(=O)N(C)c1nnc(C(C)(C)C)s1", "Quantity Name": "AC50", "Reported Result": "inactive"}
{"Compound": "Nc1cnn(-c2ccccc2)c(=O)c1Cl", "Quantity Name": "AC50", "Reported Result": "inactive"}
{"Compound": "Nc1c(Cl)c(F)nc(OCC(=O)O)c1Cl", "Quantity Name": "AC50", "Reported Result": "inactive"}
{"Compound": "CCNP(=S)(OC)O/C(C)=C/C(=O)OC(C)C (stereo unspecified)", "Quantity Name": "AC50", "Reported Result": "inactive"}
{"Compound": "CCCN(CC)CC1COC2(CCC(C(C)(C)C)CC2)O1 (stereo unspecified)", "Quantity Name": "AC50", "Reported Result": "inactive"}
{"Compound": "Clc1cccc(C(Cl)(Cl)Cl)n1", "Quantity Name": "AC50", "Reported Result": "inactive"}
{"Compound": "O=C(O)c1c(Cl)ccc2cc(Cl)cnc12", "Quantity Name": "AC50", "Reported Result": "inactive"}
{"Compound": "COP(=O)(OC)O/C(C)=C/C(=O)N(C)C", "Quantity Name": "AC50", "Reported Result": "inactive"}
{"Compound": "CN=C=S", "Quantity Name": "AC50", "Reported Result": "inactive"}
{"Compound": "CC1(C)C(C(=O)OC(C#N)c2cccc(Oc3ccccc3)c2)C1(C)C (stereo unspecified)", "Quantity Name": "AC50", "Reported Result": "inactive"}
{"Compound": "CN/C(=N\\[N+](=O)[O-])NCc1cnc(Cl)s1", "Quantity Name": "AC50", "Reported Result": "inactive"}
{"Compound": "O=c1n(Cl)c(=O)n(Cl)c(=O)n1Cl", "Quantity Name": "AC50", "Reported Result": "inactive"}
{"Compound": "CC(C)N1C(=O)c2ccccc2NS1(=O)=O", "Quantity Name": "AC50", "Reported Result": "inactive"}
{"Compound": "Cc1nc(N(C)C)nc(OC(=O)N(C)C)c1C", "Quantity Name": "AC50", "Reported Result": "inactive"}
{"Compound": "CCOC(=O)C(C)OC(=O)c1cc(Oc2ccc(C(F)(F)F)cc2Cl)ccc1[N+](=O)[O-] (stereo unspecified)", "Quantity Name": "AC50", "Reported Result": "0.414 µM (active)"}
{"Compound": "Clc1nc(Cl)nc(Nc2ccccc2Cl)n1", "Quantity Name": "AC50", "Reported Result": "inactive"}
{"Compound": "C=CCOC(=O)C(C)(C)OC(=O)c1cc(-n2c(=O)cc(C(F)(F)F)n(C)c2=O)ccc1Cl", "Quantity Name": "AC50", "Reported Result": "inactive"}
{"Compound": "COC(=O)c1c(C(F)F)nc(C(F)(F)F)c(C2=NCCS2)c1CC(C)C", "Quantity Name": "AC50", "Reported Result": "inactive"}
{"Compound": "Cn1c(-c2ccccc2)cc(-c2ccccc2)[n+]1C", "Quantity Name": "AC50", "Reported Result": "24 µM (active)"}
{"Compound": "C=C(C)CN(CC)c1c([N+](=O)[O-])cc(C(F)(F)F)cc1[N+](=O)[O-]", "Quantity Name": "AC50", "Reported Result": "inactive"}
{"Compound": "COC(=O)NC(=S)Nc1ccccc1NC(=S)NC(=O)OC", "Quantity Name": "AC50", "Reported Result": "inactive"}
{"Compound": "CC(C)(C)C(=O)C(Oc1ccc(Cl)cc1)n1cncn1 (stereo unspecified)", "Quantity Name": "AC50", "Reported Result": "30.1 µM (active)"}
{"Compound": "Cc1cc(C)nc(Nc2ccccc2)n1", "Quantity Name": "AC50", "Reported Result": "inactive"}
{"Compound": "CC(C)N1C(=O)N(c2ccccc2)CSC1=NC(C)(C)C", "Quantity Name": "AC50", "Reported Result": "63.6 µM (active)"}
{"Compound": "CS(=O)(=O)c1cc(C(F)(F)F)ccc1C(=O)c1cnoc1C1CC1", "Quantity Name": "AC50", "Reported Result": "inactive"}
{"Compound": "CCCCC(O)(Cn1cncn1)c1ccc(Cl)cc1Cl (stereo unspecified)", "Quantity Name": "AC50", "Reported Result": "67.8 µM (active)"}
{"Compound": "CCCCOCN(C(=O)CCl)c1c(CC)cccc1CC", "Quantity Name": "AC50", "Reported Result": "inactive"}
{"Compound": "Cc1ccc(N=CN(C)C=Nc2ccc(C)cc2C)c(C)c1", "Quantity Name": "AC50", "Reported Result": "inactive"}
{"Compound": "CCOP(=O)(OCC)Oc1nc(Cl)c(Cl)cc1Cl", "Quantity Name": "AC50", "Reported Result": "90.1 µM (active)"}
{"Compound": "CCOP(=S)(OCC)Oc1nc(Cl)n(C(C)C)n1", "Quantity Name": "AC50", "Reported Result": "35.9 µM (active)"}
{"Compound": "Cc1c(COC(=O)[C@@H]2[C@H](/C=C(\\Cl)C(F)(F)F)C2(C)C)cccc1-c1ccccc1", "Quantity Name": "AC50", "Reported Result": "inactive"}
{"Compound": "CCCC(=NOCC)C1=C(O)CC(CC(C)SCC)CC1=O (stereo unspecified)", "Quantity Name": "AC50", "Reported Result": "inactive"}
